Target: T1, Human CD3eg linker (human)
T1 construct: Single-chain construct; also called recombinant human CD3
T1 chain: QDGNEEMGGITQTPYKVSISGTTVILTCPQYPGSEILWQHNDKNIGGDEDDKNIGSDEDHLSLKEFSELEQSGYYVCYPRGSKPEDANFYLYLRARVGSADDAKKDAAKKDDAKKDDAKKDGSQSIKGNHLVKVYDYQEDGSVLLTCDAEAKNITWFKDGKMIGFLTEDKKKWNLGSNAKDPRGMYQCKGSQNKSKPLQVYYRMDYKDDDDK
Assay: SPR; fold vs parent H183/L072
MEASURED_PARAMETER: fold change of affinity
Please answer using the number first and the unit second.

Reported fold change of affinity ( H183/L072 VL N30W (antibody, name in Kabat numbering, V domains shown) VH: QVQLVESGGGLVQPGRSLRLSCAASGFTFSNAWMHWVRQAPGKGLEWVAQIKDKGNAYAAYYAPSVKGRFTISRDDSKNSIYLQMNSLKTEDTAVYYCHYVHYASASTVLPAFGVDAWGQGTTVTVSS VL: DIVMTQSPLSLPVTPGEPASISCQASQELVHMNRWTYLHWYQQKPGQAPRLLIYKVSNRFPGVPDRFSGSGSGTDFTLKISRVEAEDVGVYYCAQGTSVPFTFGQGTKLEIK ) = 0.9 fold

Reported fold change of affinity ( H183/L072 VL N53K (antibody, name in Kabat numbering, V domains shown) VH: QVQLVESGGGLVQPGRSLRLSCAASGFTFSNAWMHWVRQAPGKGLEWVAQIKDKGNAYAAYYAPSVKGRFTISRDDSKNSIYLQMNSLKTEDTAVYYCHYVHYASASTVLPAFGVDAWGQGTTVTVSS VL: DIVMTQSPLSLPVTPGEPASISCQASQELVHMNRNTYLHWYQQKPGQAPRLLIYKVSKRFPGVPDRFSGSGSGTDFTLKISRVEAEDVGVYYCAQGTSVPFTFGQGTKLEIK ) = 1.4 fold

Reported fold change of affinity ( H183/L072 VL Q24V (antibody, name in Kabat numbering, V domains shown) VH: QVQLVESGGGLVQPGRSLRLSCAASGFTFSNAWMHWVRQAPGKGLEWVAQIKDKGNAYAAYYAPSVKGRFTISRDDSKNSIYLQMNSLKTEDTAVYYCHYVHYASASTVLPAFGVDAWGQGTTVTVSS VL: DIVMTQSPLSLPVTPGEPASISCVASQELVHMNRNTYLHWYQQKPGQAPRLLIYKVSNRFPGVPDRFSGSGSGTDFTLKISRVEAEDVGVYYCAQGTSVPFTFGQGTKLEIK ) = 1.2 fold

Reported fold change of affinity ( H183/L072 VL M27eP (antibody, name in Kabat numbering, V domains shown) VH: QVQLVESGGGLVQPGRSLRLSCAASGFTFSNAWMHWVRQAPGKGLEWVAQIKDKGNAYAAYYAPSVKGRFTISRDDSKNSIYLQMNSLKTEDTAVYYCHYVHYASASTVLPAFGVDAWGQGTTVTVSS VL: DIVMTQSPLSLPVTPGEPASISCQASQELVHPNRNTYLHWYQQKPGQAPRLLIYKVSNRFPGVPDRFSGSGSGTDFTLKISRVEAEDVGVYYCAQGTSVPFTFGQGTKLEIK ) = 1.2 fold

Reported fold change of affinity ( H183/L072 VL V27cA (antibody, name in Kabat numbering, V domains shown) VH: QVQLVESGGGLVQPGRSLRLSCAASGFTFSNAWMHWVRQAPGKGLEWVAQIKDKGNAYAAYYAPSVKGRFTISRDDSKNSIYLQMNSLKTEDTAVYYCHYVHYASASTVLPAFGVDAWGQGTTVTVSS VL: DIVMTQSPLSLPVTPGEPASISCQASQELAHMNRNTYLHWYQQKPGQAPRLLIYKVSNRFPGVPDRFSGSGSGTDFTLKISRVEAEDVGVYYCAQGTSVPFTFGQGTKLEIK ) = 0.4 fold

Reference for the values: patent US20210388087A1
